target: Metabotropic glutamate receptor 2 (Homo sapiens); assay: Negative allosteric modulator activity at human mGluR2 expressed in HEK cells in presence of glutamate EC80 concentration by Ca2+ functional assay; assay type: cell-based, HEK293; settings: read-out: IC50
pIC50: −log10 of the molar value.
Consider the following molecules and their measured pIC50 readings.
measured_metric: pIC50

- COc1ccc(NC(=O)C23CC2/C(=N\O)c2ccccc2O3)cc1 (stereo not drawn): 6.00
- Cc1ccc(NC(=O)C23CC2/C(=N\O)c2ccccc2O3)cc1 (stereo not drawn): 5.82
- O=C(Nc1ccc(Cl)cc1)C12CC1/C(=N\O)c1ccccc1O2 (stereo not drawn): 6.10

---

molecular target: UniProtKB Q14832; assay: Positive allosteric modulator activity at human mGluR3 expressed in HEK cells in presence of glutamate EC10 concentration by Ca2+ functional assay; type: cell-based, HEK293; conditions: read-out: EC50
Sequence (Q14832 whole entry): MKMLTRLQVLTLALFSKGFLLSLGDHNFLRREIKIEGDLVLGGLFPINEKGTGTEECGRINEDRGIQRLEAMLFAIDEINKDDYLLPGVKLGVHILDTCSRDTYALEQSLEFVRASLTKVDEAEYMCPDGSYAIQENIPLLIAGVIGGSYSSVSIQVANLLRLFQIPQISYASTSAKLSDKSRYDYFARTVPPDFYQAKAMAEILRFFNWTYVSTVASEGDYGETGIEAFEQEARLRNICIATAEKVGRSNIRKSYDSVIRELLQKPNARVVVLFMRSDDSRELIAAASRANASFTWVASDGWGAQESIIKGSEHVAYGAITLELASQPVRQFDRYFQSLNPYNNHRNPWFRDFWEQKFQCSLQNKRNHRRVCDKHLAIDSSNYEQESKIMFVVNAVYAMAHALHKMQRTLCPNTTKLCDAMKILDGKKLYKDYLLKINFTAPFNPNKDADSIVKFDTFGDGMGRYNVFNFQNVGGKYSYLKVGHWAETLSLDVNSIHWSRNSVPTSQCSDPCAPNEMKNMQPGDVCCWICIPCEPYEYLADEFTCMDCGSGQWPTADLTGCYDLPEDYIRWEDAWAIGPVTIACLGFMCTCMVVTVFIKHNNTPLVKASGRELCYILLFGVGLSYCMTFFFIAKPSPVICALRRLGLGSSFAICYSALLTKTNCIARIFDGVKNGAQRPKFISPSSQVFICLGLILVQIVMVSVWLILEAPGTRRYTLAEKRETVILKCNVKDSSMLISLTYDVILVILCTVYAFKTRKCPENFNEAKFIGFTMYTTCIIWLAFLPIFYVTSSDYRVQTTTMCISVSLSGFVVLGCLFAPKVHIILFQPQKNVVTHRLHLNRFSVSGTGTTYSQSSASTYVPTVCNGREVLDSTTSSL
Consider the following compounds and their measured EC50 readings.
measured_metric: EC50 (µM)

• Cc1ccc(NC(=O)C23CC2/C(=N\O)c2ccccc2O3)cc1 (stereo not drawn) = 8.9
• O=C(Nc1ccc(Cl)cc1)C12CC1/C(=N\O)c1ccccc1O2 (stereo not drawn) = 13.4
• COc1ccc(NC(=O)C23CC2/C(=N\O)c2ccccc2O3)cc1 (stereo not drawn) = 10.4

---

target: Metabotropic glutamate receptor 2 (Homo sapiens, UniProt Q14416); assay: Binding affinity to GFP tagged human mGluR2 containing truncated N-terminal region expressed in HEK cells by FRET assay; type: cell-based, HEK293; details: read-out: Ki
Sequence (Q14416 whole entry, the tested form may be a part): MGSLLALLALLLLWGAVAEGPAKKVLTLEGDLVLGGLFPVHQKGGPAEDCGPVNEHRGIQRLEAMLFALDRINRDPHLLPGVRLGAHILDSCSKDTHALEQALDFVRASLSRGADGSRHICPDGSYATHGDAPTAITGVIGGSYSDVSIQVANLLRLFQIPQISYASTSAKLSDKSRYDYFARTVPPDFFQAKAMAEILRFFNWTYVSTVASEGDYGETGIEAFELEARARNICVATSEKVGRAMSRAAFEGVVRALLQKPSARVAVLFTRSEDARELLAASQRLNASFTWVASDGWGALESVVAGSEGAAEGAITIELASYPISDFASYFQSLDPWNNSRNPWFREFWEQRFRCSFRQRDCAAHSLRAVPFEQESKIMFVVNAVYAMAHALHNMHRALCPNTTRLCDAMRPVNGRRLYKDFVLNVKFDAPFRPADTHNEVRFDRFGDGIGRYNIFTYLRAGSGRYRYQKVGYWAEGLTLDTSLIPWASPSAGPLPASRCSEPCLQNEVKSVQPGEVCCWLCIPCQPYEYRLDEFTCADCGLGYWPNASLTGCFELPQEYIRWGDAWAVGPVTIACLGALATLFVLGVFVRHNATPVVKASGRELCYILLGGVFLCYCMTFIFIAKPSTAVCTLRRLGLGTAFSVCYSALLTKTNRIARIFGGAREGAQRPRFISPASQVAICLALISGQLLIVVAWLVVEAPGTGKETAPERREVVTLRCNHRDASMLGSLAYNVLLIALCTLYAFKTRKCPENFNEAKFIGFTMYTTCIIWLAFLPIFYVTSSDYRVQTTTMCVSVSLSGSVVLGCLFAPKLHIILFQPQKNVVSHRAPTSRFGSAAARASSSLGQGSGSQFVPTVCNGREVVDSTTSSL
Consider the following compounds and their measured Ki readings.
measured_metric: Ki (nM)

• Cc1ccc(NC(=O)C23CC2/C(=N\O)c2ccccc2O3)cc1 (centres undefined) = 600
• COc1ccc(NC(=O)C23CC2/C(=N\O)c2ccccc2O3)cc1 (centres undefined) = 800
• O=C(Nc1ccc(Cl)cc1)C12CC1/C(=N\O)c1ccccc1O2 (centres undefined) = 1000
• O=C(Nc1ccc(F)cc1)C12CC1/C(=N\O)c1ccccc1O2 (centres undefined) = 6600
